// data source = paper PMC5540273

A collection of compounds and their measured %Inh
System: WEE2
conditions-used: concentration: 1 μM, replicates: in singlicate; n = 1;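 also: KINOMEscan kinase panel screen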
readout-label: %Inh (%)

compound: NCCC(NC(=O)c1cc(Br)c(-c2ccnc3[nH]ccc23)s1)c1ccccc1.O=C(O)C(F)(F)F.O=C(O)C(F)(F)F (stereo not shown)
target: WEE2
readout-label: %Inh
observed-measurement: 0
//
compound: O=C(Nc1n[nH]c2nc(-c3ccccc3)ccc12)C1CC1
target: WEE2
readout-label: %Inh
observed-measurement: 0
//
compound: CN(c1ccc(NC(=O)Nc2cccc(Cl)c2)cc1)c1ccnc(N)n1.Cl
target: WEE2
readout-label: %Inh
observed-measurement: 0
//
compound: CC(C)NCC(Cc1ccccc1)NC(=O)c1cc(Br)c(-c2ccnc3[nH]ccc23)s1.Cl.Cl (stereo not shown)
target: WEE2
readout-label: %Inh
observed-measurement: 0
//
compound: Cc1ccccc1CC(=O)N1CCc2cc(-c3cn(C)c4ncnc(N)c34)ccc21
target: WEE2
readout-label: %Inh
observed-measurement: 17
//
compound: CN(C)CCNS(=O)(=O)c1ccc(-c2ccnc3[nH]ccc23)cc1
target: WEE2
readout-label: %Inh
observed-measurement: 0
//
compound: Nc1ncc(-c2cn[nH]c2)c2scc(-c3ccc4c(c3)CCN4C(=O)Cc3ccccc3)c12
target: WEE2
readout-label: %Inh
observed-measurement: 12
//
compound: CCn1c(-c2nonc2N)nc2c(-c3ccccc3)ncc(OCCCN)c21.O=C(O)C(F)(F)F.O=C(O)C(F)(F)F
target: WEE2
readout-label: %Inh
observed-measurement: 8
//
compound: CC(=O)Nc1cn2nc(Oc3cccc(NC(=O)c4cccc(C(F)(F)F)c4)c3)ccc2n1
target: WEE2
readout-label: %Inh
observed-measurement: 0
//
compound: COc1cc(Nc2nccc(N3CCC(NS(=O)(=O)c4ccc(NC(C)=O)cc4)CC3)n2)cc(OC)c1OC
target: WEE2
readout-label: %Inh
observed-measurement: 0
//
compound: CSc1ccc(NC2=C(c3ccc(Cl)cc3)C(=O)NC2=O)cc1
target: WEE2
readout-label: %Inh
observed-measurement: 0
//
compound: Cn1cc(-c2ccc3c(c2)CCN3C(=O)Cc2cc(F)cc(C(F)(F)F)c2)c2c(N)ncnc21
target: WEE2
readout-label: %Inh
observed-measurement: 0
//
compound: CC(C)c1nc(-c2cccc(NS(=O)(=O)c3c(F)cccc3F)c2)c(-c2ccnc(Nc3ccc(N4CCOCC4)nc3)n2)s1.Cl
target: WEE2
readout-label: %Inh
observed-measurement: 0
//
compound: Nc1ncc(-c2ccc3nccc(-c4ccncc4)c3c2)cc1S(=O)(=O)N1CCCCC1
target: WEE2
readout-label: %Inh
observed-measurement: 0
//
compound: COC(=O)Nc1nc2ccc(Oc3ccc(NC(=O)Nc4cc(C(F)(F)F)ccc4F)cc3)cc2[nH]1.Cl
target: WEE2
readout-label: %Inh
observed-measurement: 0
//
compound: CN(c1ccc(F)c(NC(=O)c2cccc(OC(C)(C)C#N)c2Cl)c1)c1ccc2nc(NC(=O)C3CC3)sc2n1
target: WEE2
readout-label: %Inh
observed-measurement: 17

====

System: ADCK4
conditions-used: concentration: 1 μM, replicates: in singlicate; n = 1
Each record is given Met if its reported %Inh is strictly below 20%. Records at or above 20% are given Not met.

compound: CN(c1ccc(NC(=O)N2CCN(CCCN3CCOCC3)CC2)cc1)c1ccnc(Nc2ccc(CS(C)(=O)=O)cc2)n1.Cl
assigned-class: Met
//
compound: COC(=O)Nc1nc2cc(Oc3ccc(NC(=O)Nc4cccc(SC)c4)cc3)ccc2[nH]1.Cl
assigned-class: Not met
//
compound: COc1ccc(NC(=O)c2ccoc2)cc1-c1ccc(C(=O)NCC2CC2)cc1
assigned-class: Met
//
compound: O=C(Nc1n[nH]c2cc(-c3cccs3)ccc12)C1CC1
assigned-class: Met
//
compound: CCNC(=O)/C=C/c1n[nH]c2cc(Sc3ccccc3C(=O)NC)ccc12
assigned-class: Met
//
compound: Cc1ccc(O)cc1Nc1ccnc2ccc(C(C)(C)C)cc12
assigned-class: Not met
//
compound: O=C(Nc1n[nH]c2nc(-c3ccccc3)ccc12)C1CC1
assigned-class: Met
//
compound: Cc1ccc(NC(=O)c2ccnc(N3CCCCC3)c2)cc1-c1ccc(C(=O)NCC2CC2)cc1
assigned-class: Met
//
compound: Cc1cccc(Nc2nc(NCCN)ncc2C(N)=O)c1
assigned-class: Not met
//
compound: Cl.Cl.NC(CNC(=O)c1cc(Br)c(-c2ccnc3[nH]ccc23)s1)c1ccccc1 (stereo not shown)
assigned-class: Not met
//
compound: O=C(Nc1n[nH]c2nc(-c3ccccc3O)ccc12)C1CC1
assigned-class: Met
//
compound: CN(c1ccc(F)c(NC(=O)c2cccc(OC(C)(C)C#N)c2Cl)c1)c1ccc2nc(NC(=O)C3CC3)sc2n1
assigned-class: Met
//
compound: CC(C)(C)c1ccc(C(=O)Nc2cn3cc(-n4ccnc4)ccc3n2)cc1
assigned-class: Met
//
compound: CC(C)NCC(Cc1ccccc1)NC(=O)c1cc(Br)c(-c2ccnc3[nH]ccc23)s1.Cl.Cl (stereo not shown)
assigned-class: Not met
//
compound: CS(=O)(=O)c1cccc(CNc2nc(Nc3ccc4c(c3)CCC(=O)N4)ncc2C(F)(F)F)c1
assigned-class: Met
//
compound: CN(C)c1ncnc2nc[nH]c12
assigned-class: Met
//
compound: Nc1ncc(-c2cn[nH]c2)c2scc(-c3ccc4c(c3)CCN4C(=O)Cc3ccccc3)c12
assigned-class: Met
//
compound: O=C(O)C(F)(F)F.O=c1[nH]ccc2nc(N[C@@H]3CCNC3)nc(Nc3ccc4c(c3)S(=O)(=O)CC4)c12
assigned-class: Met
//
compound: Cc1ccc(O)cc1Nc1ccnc2cc(-c3ccc(CN4CCCCC4)o3)ccc12
assigned-class: Not met
//
compound: CN(C)CCOc1ccc(-c2cc(-c3ccc(Cl)c(O)c3)c(-c3ccncc3)[nH]2)cc1.Cl.Cl
assigned-class: Not met
//
compound: Fc1cc(Cl)ccc1Nc1ccnc2cc(-c3ccc(CN4CCSCC4)o3)ccc12
assigned-class: Not met
//
compound: CC(=O)Nc1cn2nc(Oc3cccc(NC(=O)c4cccc(C(F)(F)F)c4)c3)ccc2n1
assigned-class: Met
//
compound: COc1ccc(C)c(Nc2ccnc(Nc3ccc(-c4cnc[nH]4)cc3)n2)c1.Cl
assigned-class: Not met
//
compound: CN(c1ccc2c(c1)nc(NCc1ccccc1)n2C)c1ccnc(Nc2ccc(CS(C)(=O)=O)cc2)n1.Cl
assigned-class: Met
//
compound: Cl.O=C(Nc1ccc(Oc2ccc3[nH]c(NC(=O)c4ccco4)nc3c2)cc1)Nc1cc(C(F)(F)F)ccc1F
assigned-class: Met
//
compound: COc1ccc(C2=C(Nc3cccc(O)c3)C(=O)NC2=O)cc1
assigned-class: Met
//
compound: Fc1cc(Cl)ccc1Nc1ccnc2cc(-c3ccc(CN4CCOCC4)o3)ccc12
assigned-class: Met
//
compound: COc1cc(Nc2ccnc3cc(-c4ccncc4)ccc23)cc(OC)c1OC.Cl
assigned-class: Met
//
compound: Cl.N#CCc1ccc(Nc2nccc(Nc3ccc(Oc4ccccc4)cc3)n2)cc1
assigned-class: Not met
//
compound: Cn1cc(-c2ccc3c(c2)CCN3C(=O)Cc2cc(F)cc(C(F)(F)F)c2)c2c(N)ncnc21
assigned-class: Met
//
compound: N#Cc1cnc2cc(-c3cnc(CNCCN4CCOCC4)s3)ccc2c1Nc1ccc(Oc2ccccc2)cc1
assigned-class: Not met

====

A collection of molecules and their measured %Inh
System: FLT3
conditions-used: concentration: 1 μM, replicates: in singlicate; n = 1
readout-label: %Inh (%)

molecule: COc1cc(Nc2ccnc3cc(-c4ccncc4)ccc23)cc(OC)c1OC.Cl
readout-label: %Inh
units-symbol: %
observed-measurement: 3
//
molecule: Cl.N#CCc1ccc(Nc2nccc(Nc3ccc(Oc4ccccc4)cc3)n2)cc1
readout-label: %Inh
units-symbol: %
observed-measurement: 94.5
//
molecule: O=C(O)C(F)(F)F.O=c1[nH]ccc2nc(N[C@@H]3CCNC3)nc(Nc3cc(Cl)cc(Cl)c3)c12
readout-label: %Inh
units-symbol: %
observed-measurement: 23
//
molecule: CC(C)c1nc(-c2ccc(F)c(NS(=O)(=O)c3c(F)cccc3F)c2)c(-c2ccnc(Nc3ccc(N4CCOCC4)nc3)n2)s1
readout-label: %Inh
units-symbol: %
observed-measurement: 12
//
molecule: Nc1ncc(-c2cn[nH]c2)c2scc(-c3ccc4c(c3)CCN4C(=O)Cc3ccccc3)c12
readout-label: %Inh
units-symbol: %
observed-measurement: 98.4
//
molecule: COc1cc(Nc2nccc(N3CCC(NS(=O)(=O)c4ccc(NC(C)=O)cc4)CC3)n2)cc(OC)c1OC
readout-label: %Inh
units-symbol: %
observed-measurement: 92
//
molecule: Cl.Cl.NC(CNC(=O)c1cc(Br)c(-c2ccnc3[nH]ccc23)s1)c1ccccc1 (stereo not drawn)
readout-label: %Inh
units-symbol: %
observed-measurement: 90.9
//
molecule: Cc1ccc(NC(=O)c2ccnc(N3CCCCC3)c2)cc1-c1ccc(C(=O)NCC2CC2)cc1
readout-label: %Inh
units-symbol: %
observed-measurement: 72
//
molecule: Nc1cccc(-c2ccc3c(N)n[nH]c3c2)c1
readout-label: %Inh
units-symbol: %
observed-measurement: 14
//
molecule: COc1ccc(C2=C(Nc3cccc(O)c3)C(=O)NC2=O)cc1
readout-label: %Inh
units-symbol: %
observed-measurement: 0
//
molecule: O=C1NC(=O)C(c2ccccc2Cl)=C1Nc1cccc(Cl)c1
readout-label: %Inh
units-symbol: %
observed-measurement: 0
//
molecule: CCNc1nccc(-c2c(-c3ccc(F)cc3)ncn2C2CCN(C)CC2)n1
readout-label: %Inh
units-symbol: %
observed-measurement: 24
//
molecule: CCOc1nccc(-c2c(-c3ccc(F)cc3)ncn2C2CCNCC2)n1
readout-label: %Inh
units-symbol: %
observed-measurement: 39
//
molecule: CC(=O)Nc1cn2nc(Oc3cccc(NC(=O)c4cccc(C(F)(F)F)c4)c3)ccc2n1
readout-label: %Inh
units-symbol: %
observed-measurement: 97.4
//
molecule: N#CC1(c2cccc(C(=O)Nc3cccc(Oc4ccc5nc(NC(=O)C6CC6)sc5n4)c3)c2)CC1
readout-label: %Inh
units-symbol: %
observed-measurement: 96
//
molecule: Fc1cc(Cl)ccc1Nc1ccnc2cc(-c3ccc(CN4CCOCC4)o3)ccc12
readout-label: %Inh
units-symbol: %
observed-measurement: 53
//
molecule: Cc1cccc(Nc2nc(NCCN)ncc2C(N)=O)c1
readout-label: %Inh
units-symbol: %
observed-measurement: 13
//
molecule: COc1cccc(C2=C(Nc3cccc(O)c3)C(=O)NC2=O)c1
readout-label: %Inh
units-symbol: %
observed-measurement: 3
